Value source: patent US20200338203A1

# EXPERIMENTAL TARGET: T1, Human EphA2 (Human, UniProt P29317 24-537)
# T1 construct: extracellular domain; also called EphA2 (Ecto), Human
# T1 sequence (P29317 24-537): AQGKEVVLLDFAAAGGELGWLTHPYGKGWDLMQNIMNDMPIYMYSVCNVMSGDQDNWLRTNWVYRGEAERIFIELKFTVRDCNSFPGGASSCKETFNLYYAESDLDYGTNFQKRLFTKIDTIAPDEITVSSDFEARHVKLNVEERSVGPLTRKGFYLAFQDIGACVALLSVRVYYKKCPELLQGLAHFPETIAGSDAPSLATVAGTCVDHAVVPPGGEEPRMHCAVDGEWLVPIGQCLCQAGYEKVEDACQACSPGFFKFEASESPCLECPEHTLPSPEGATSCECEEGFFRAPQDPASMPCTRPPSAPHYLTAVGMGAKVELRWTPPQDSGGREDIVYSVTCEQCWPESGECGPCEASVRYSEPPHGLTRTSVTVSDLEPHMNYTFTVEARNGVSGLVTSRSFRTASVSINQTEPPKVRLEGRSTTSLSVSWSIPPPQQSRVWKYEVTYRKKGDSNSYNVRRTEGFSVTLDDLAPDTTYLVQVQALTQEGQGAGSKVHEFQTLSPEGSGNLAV
# RUN DESCRIPTION: FP competition; competitor: fluorescent Compound 18
Numbered stars: 1 amine (or outer) side, 2 acyl side, 3 side chain; on linkers, the order of the positions; unused ones are H or OH. Bridge positions count the residues as written; N and C are the ends. Square brackets hold non-standard residues; d marks the D form. Ends that are not written are not given here. TBMB = c1c(C[*:1])cc(C[*:3])cc1C[*:2]; Sar = CNCC(=O)O
PARAMETER MEASURED: Ki

# count of solved cases: 2
Request: # Ki lookup, item ADVHCPWAPFWCPVNRPGCA (linker 5-12-19 via TBMB, bicyclic peptide) [Compound 151]
Result: 394 nM

Request: Also check ADVHCPWGPFWCPV[dA]RPGCA (linker 5-12-19 via TBMB, bicyclic peptide) [Compound 155]
Result: 2 nM

Turning to the following binder.
Request: Quick one: Ki for [Sar][Sar]ACPWGPFWCPVNR[dA]GC (linker 4-11-18 via TBMB, bicyclic peptide) [Compound 105] ?
Result: 677 nM
